Cited source for all entries: PubChem BioAssay (EPA / NIEHS)

Biological target: Hypoxia-inducible factor 1-alpha (Homo sapiens)
Test: ATG_HIF1a_CIS: Attagene CIS-FACTORIAL HepG2 Assay for human Hypoxia Inducible Factor 1 (HIF1A) (AID 2282951)
Conditions: HepG2 Attagene cis-factorial HIF1a reporter transcription; actives raise or lower the signal
Active and inactive are the calls of the source. Rule for the calls: active = hit-call score of the fitted dose curve at least 0.9, where 1 is the maximum; inactive = score below 0.9.
Outcomes: Yes (active), No (inactive)

>>> df
                                    molecule  qualitative_label
 0                        [Cl][Eu]([Cl])[Cl]                 No
 1  O=C(O)CC(C(=O)O)S(=O)(=O)O (stereo not drawn)                 No
 2                              Nc1cccc(N)n1                 No
 3                                   C1CCSC1                 No
 4    COc1cc(O)c(C(=O)c2ccccc2)cc1S(=O)(=O)O                 No
 5                  Oc1ccc(-c2ccccc2)c(Cl)c1                Yes
 6     C=C(C)C1CC=C(C)CC1 (stereo not drawn)                 No
 7                     CCOC(=O)/C=C\C(=O)OCC                 No
 8         CC/C=C\C/C=C\C/C=C\CCCCCCCC(=O)OC                Yes
 9                     CC(C)CC(=O)OCc1ccccc1                 No
10                        CCCCOC(=O)CCC(C)=O                 No
11                O=C(OCc1ccccc1)c1ccc(O)cc1                Yes
12                         CCC[Si](OC)(OC)OC                 No
13    CCCCCCCCC(CO)CCCCCC (stereo not drawn)                 No
14                    CC(C)C(=O)OCCOc1ccccc1                 No
15  C=CC(=O)OCC(C)OCC(C)OCC(C)OC(=O)C=C (stereo not drawn)                 No
16      CC1=CCC2CC1C2(C)C (stereo not drawn)                 No
17                             Cc1c(O)cccc1O                 No
